System: Escherichia coli TOP10;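 note: peptides expressed intracellularly from a pBAD plasmid library in pooled LB shake-flask culture, induced with 0.3% L-arabinose, DNA abundance read by NGS, three biological replicates, DESeq2 with apeglm shrinkage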
Assay: shrunken log2 fold change of peptide-encoding DNA abundance (4.5 h post-induction vs induction); higher = less antimicrobial activity (less host growth inhibition)
Conditions: time post-induction: 4.5 h; library: site-saturation at positions 5, 18, 19, 20
Answer each item with its documented shrunken log2 fold change.
One number for each entry.

RRIRKRPPRLPRPRPRPTSHPRP | 0.37
RRIRDRPPRLPRPRPRPAPGPRP | 0.699
RRIRSRPPRLPRPRPRPARDPRP | 0.407
RRIRNRPPRLPRPRPRPTEQPRP | -0.209

Your task in this section: give shrunken log2 fold change for each listed record.
1. RRIRNRPPRLPRPRPRPIQIPRP
2. RRIRPRPPRLPRPRPRPETEPRP
3. RRIRWRPPRLPRPRPRPINAPRP

1: -0.363; 2: 0.344; 3: 0.252

Your task in this section: give shrunken log2 fold change for each listed record.
1. RRIRGRPPRLPRPRPRPVVKPRP
2. RRIRMRPPRLPRPRPRPFAPPRP
3. RRIRWRPPRLPRPRPRPVVWPRP
4. RRIRRRPPRLPRPRPRPWITPRP
5. RRIRPRPPRLPRPRPRPMLMPRP
6. RRIRVRPPRLPRPRPRPMRRPRP

0.246
0.633
0.626
-0.0428
0.459
0.392
